Target: Renin (Homo sapiens)
Sequence (P00797 whole entry): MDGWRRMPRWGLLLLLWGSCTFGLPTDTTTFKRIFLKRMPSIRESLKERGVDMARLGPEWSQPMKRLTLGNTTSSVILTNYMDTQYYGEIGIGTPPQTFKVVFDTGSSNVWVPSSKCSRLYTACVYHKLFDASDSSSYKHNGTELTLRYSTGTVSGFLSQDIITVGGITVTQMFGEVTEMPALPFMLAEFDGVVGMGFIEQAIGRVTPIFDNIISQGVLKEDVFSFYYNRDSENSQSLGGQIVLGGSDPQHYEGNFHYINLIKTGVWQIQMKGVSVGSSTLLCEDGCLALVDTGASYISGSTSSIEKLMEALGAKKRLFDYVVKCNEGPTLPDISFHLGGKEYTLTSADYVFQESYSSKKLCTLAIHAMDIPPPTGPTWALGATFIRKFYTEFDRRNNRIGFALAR
Assay: Inhibition of human rennin in human plasma assessed as accumulation of angiotensin 1 using human tetradecapeptide by immunoassay
Assay type: cell-free
ATTRIBUTE MEASURED: IC50 (nM)

Reference set (5 entries):
* O=C(C1=C(c2ccc(CCCOc3c(F)ccc(F)c3Cl)cc2)C[C@H]2CC[C@H]1N2)N(Cc1cccc(Cl)c1Cl)C1CC1 | 47
* O=C(C1=C(c2ccc(CCCOc3c(F)ccc(F)c3Cl)cc2)C[C@H]2CCC[C@H]1N2)N(Cc1cccc(Cl)c1Cl)C1CC1 | 113
* COc1cccc(CN(C(=O)C2=C(c3ccc(CCCOc4c(F)ccc(F)c4Cl)cc3)C[C@H]3CCC[C@H]2N3)C2CC2)c1C | 101
* COc1cccc(CN(C(=O)C2=C(c3ccc(CCCOc4c(F)ccc(F)c4Cl)cc3)C[C@H]3CC[C@H]2N3)C2CC2)c1C | 43
* COc1cccc(CN(C(=O)C2=C(c3ccc(CCCOc4c(F)ccc(F)c4Cl)cc3)C[C@H]3COC[C@H]2N3)C2CC2)c1C | 42

P: COc1cccc(CN(C(=O)C2=C(c3ccc(CCCOc4c(F)ccc(F)c4Cl)cc3)CCNC2)C2CC2)c1C
Q: O=C(C1=C(c2ccc(CCCOc3c(F)ccc(F)c3Cl)cc2)C2(CC2)CNC1)N(Cc1cccc(Cl)c1Cl)C1CC1
Sort P and Q by IC50 descending and give the first. Your answer should be the label of the entry you select. Q

Ref: ChEMBL document CHEMBL1154384
